Target: T1, ZFP SBS#1097 (synthetic)
T1 chain: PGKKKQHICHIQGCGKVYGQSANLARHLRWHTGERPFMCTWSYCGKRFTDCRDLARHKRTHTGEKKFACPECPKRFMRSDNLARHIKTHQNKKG
Assay: EMSA
Details: tags: MBP fusion
Result type: Kd
State the result as a value with its unit after it.

Quick check: Kd of GAGGCCGAA (dsDNA) DNA 1: GAGGCCGAA DNA 2: TTCGGCCTC ?
770 pM
